Provide the reported z-score of each item.
- TEST_DESCRIPTION: Plasmodium falciparum growth inhibition, primary screen, strain 3D7, DAPI fluorescence, 100 nL (AID 1184);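 further: parasites grown inside human red blood cells in medium with human serum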
- CONDITION: P. falciparum 3D7 growth, 3 d, higher = more signal
Numbers only.

Guide cases for z-score, answers given:
| MOLECULE | z-score |
| --- | --- |
| O=C1OCCC/C=C\[C@H]2OC34C=CCN(CCN5CCOCC5)C(=O)[C@H]3N(CCCO)C(=O)[C@@H]4C12 (stereo partly drawn) | 0.211 |
| C=CCNC(=O)[C@H]1[C@@H]2C(=O)O[C@@H](c3ccccc3)[C@@H](c3ccccc3)N2[C@@H](c2ccc(O)cc2)[C@]12C(=O)N(C(=O)OCCOC)c1ccc(C#CCNC(N)=O)cc12 | 2.38 |

Continue with the next molecule.
Request: Please report z-score for the following molecule: CCN(CC)c1ccc(N2CC=CC34O[C@@H]5/C=C\CCC(C)OC(=O)C5[C@H]3C(=O)N(C(CO)C(C)C)[C@@H]4C2=O)cc1 (stereo partly drawn)
Response: -0.214

---

- TEST_DESCRIPTION: PSAC antagonists in infected red cells, primary screen, cell-based, P. falciparum Indochina, OD700, 1 h (AID 1154)
- CONDITION: P. falciparum Indochina infected RBC osmotic lysis, higher = more signal, called active from +8 up or from −8 down
Classify by measured z-score: True if it is equal to or exceeds 3, False if it is smaller.

Record excerpt, results attached:
| MOL_SMILES | QUALITATIVE_LABEL |
| --- | --- |
| COC(=O)c1c(CC[C@@H](CO)NC(=O)N[C@@H](C)Cn2cc(C3(O)CCCCC3)nn2)oc(C(C)=O)c1C(=O)OC | True |
| CCOC(=O)[C@H]1C/C=C/C[C@H](C(=O)OCC)C(=O)O[C@H]2[C@@H](OC)O[C@H](CO)[C@@H](OC(=O)Nc3ccc(C#N)cc3)[C@@H]2OC1=O | True |
| COCCOC(=O)N1C(=O)[C@@]2(c3cc(C#CCCO)ccc31)[C@H](C(=O)N1CCN(c3ncccn3)CC1)[C@H]1C(=O)O[C@H](c3ccccc3)[C@H](c3ccccc3)N1[C@@H]2c1ccccc1OCCO | False |
| COC(=O)[C@@]1(Cc2ccccc2)[C@H]2c3cc(C(=O)N4CCCC4)n(Cc4cccc5ccccc45)c3C[C@H]2CN1C(=O)c1ccccc1 | True |

Request: Please tell me: is the compound CN(C)CCCC[C@@H]1NC(=O)[C@H]2C[C@@H](C(=O)NCCCCCNC(=O)CS)[C@@H](c3cccc(OCCO)c3)N2C1=O at or over 3 in terms of z-score?
Response: False

Request: Please tell me: is the compound COC(=O)[C@@]1(Cc2ccccc2)[C@H]2c3cc(C(=O)N4CCCC4)n(Cc4nc5ccccc5[nH]4)c3C[C@H]2CN1C(=O)c1ccccc1 at or over 3 in terms of z-score?
Response: True

Request: Please tell me: is the compound C=CCOC(=O)[C@@H]1[C@H]2C(=O)O[C@H](c3ccccc3)[C@H](c3ccccc3)N2[C@H](c2ccc(OCCOC(=O)[C@@H]3C[C@@H]4C(=O)N5CCC[C@H]5C(=O)N4[C@@H]3c3ccc(O)cc3)cc2)[C@@]12C(=O)Nc1ccc(I)cc12 at or over 3 in terms of z-score?
Response: False
